- Tested on: Pseudomonas fluorescens HPPD polypeptide (wild-type and mutants)
- protocol: Coupled HPPD activity assay: turnover and residual turnover in crude HPPD polypeptide extracts with and without Cmpd. 1
- Format: biochemical
- condition_context: absence of Cmpd. 1; changes in absorbance (OD) at 320 nm in the coupled assay, 30 min
Could you label it Met if measured Turnover is 0.2 or higher, and Not met otherwise?

Worked examples, 6 molecules total:
molecule	class_name
SEQ ID NO:3 (protein, mutant HPPD polypeptide) MADLYENPMGLMGFEFIEFASPTPGTLEPIFEIMGFTKVATHRSKNVHLYRQGEINLILNNEPNSIASYFAAEHGPSVCGMAFRVKDSQKAYNRALELGAQPIHIDTGPMELNLPAIKGIGGAPLYLIDRFGEGSSIYDIDFVYLEGVERNPVGAGLKVIDHLTHNVYRGRMVYWANFYEKLFNFREARYFDIKGEYTGLTSKAMSAPDGMIRIPLNEESSKGAGQIEEFLMQFNGEGIQHVAFLTDDLVKTWDALKKIGMRFMTAPGDEYYEMLEGRLPDHGEPVDQLQARGILLDGSSVEGDKRLLLQIFSEKLMGPVFFEFIQRKGDDGFGPDSFKVLFESIERDQVRRGVLTAD	Not met
SEQ ID NO:63 (protein, mutant HPPD polypeptide) MADLYENPMGLMGFEFIEFASPTPGTLEPIFEIMGFTKVATHRSKNVHLYRQGEINLILNNEPNSIASYFAAEHGPSVCGMAFRVKDSQKAYNRALELGAQPIHIDTGPMELNLPAIKGIGGAPLYLIDRFGEGSSIYDIDFVYLEGVERNPVGAGLKVIDHLTHNVYRGRMVYWANFYEKLFNFREARYFDIKGEYTGLTSKAMSAPDGMIKIALNEESSKGAGQIEEFLMQFNGEGIQHVAFLTDDLVKTWDALKKIGMRFLTAPGDEYYEMLEGRLPDHGEPVDQLQARGILLDGSSVEGDKRLLLQIFSEKLMGPVFFEFIQRKGDDGFGPHSFKVLFEQMERDQVRRGVLTAD	Met
SEQ ID NO:22 (protein, mutant HPPD polypeptide) MADLYENPMGLMGFEFIEFASPTPGTLEPIFEIMGFTKVATHRSKNVHLYRQGEINLILNNEPNSIASYFAAEHGPSVCGMAFRVKDSQKAYNRALELGAQPIHIDTGPMELNLPAIKGIGGAPLYLIDRFGEGSSIYDIDFVYLEGVERNPVGAGLKVIDHLTHNVYRGRMVYWANFYEKLFNFREARYFDIKGEYTGLTSKAMSAPDGMIRIPLNEESSKGAGQIEEFLMQFNGEGIQHVAFLTDDLVKTWDALKKIGMRFMTAPGDEYYEMLEGRLPDHGEPVDQLQARGILLDGSSVEGDKRLLLQIFSEKLMGPVFFEFIQRKGDDGFGPHSFKVLFESIERDQVRRGVLTAD	Met
SEQ ID NO:27 (protein, mutant HPPD polypeptide) MADLYENPMGLMGFEFIEFASPTPGTLEPIFEIMGFTKVATHRSKNVHLYRQGEINLILNNEPNSIASYFAAEHGPSVCGMAFRVKDSQKAYNRALELGAQPIHIDTGPMELNLPAIKGIGGAPLYLIDRFGEGSSIYDIDFVYLEGVERNPVGAGLKVIDHLTHNVYRGRMVYWANFYEKLFNFREARYFDIKGEYTGLTSKAMSAPDGMIRIPLNEESSKGAGQIEEFLMQFNGEGIQHVAFLTDDLVKTWDALKKIGMRFLTAPGDEYYEMLEGRLPDHGEPVDQLQARGILLDGSSVEGDKRLLLQIFSERLMGPVFFEFIQRKGDDGFGPHSFKVLFESIERDQVRRGVLTAD	Met
SEQ ID NO:19 (protein, mutant HPPD polypeptide) MADLYENPMGLMGFEFIEFASPTPGTLEPIFEIMGFTKVATHRSKNVHLYRQGEINLILNNEPNSIASYFAAEHGPSVCGMAFRVKDSQKAYNRALELGAQPIHIDTGPMELNLPAIKGIGGAPLYLIDRFGEGSSIYDIDFVYLEGVERNPVGAGLKVIDHLTHNVYRGRMVYWANFYEKLFNFREARYFDIKGEYTGLTSKAMSAPDGMIRIPLNEESSKGAGQIEEFLMQFNGEGIQHVAFLTDDLVKTWDALKKIGMRFMTAPGDEYYEMLEGRLPDHGEPVDQLQARGILLDGSSVEGDKRLLLQIFSEQLMGPVFFEFIQRKGDDGFGPDSFKVLFEQMERDQVRRGVLTAD	Met
SEQ ID NO:66 (protein, mutant HPPD polypeptide) MADLYENPMGLMGFEFIEFASPTPGTLEPIFEIMGFTKVATHRSKNVHLYRQGEINLILNNEPNSIASYFAAEHGPSVCGMAFRVKDSQKAYNRALELGAQPIHIDTGPMELNLPAIKGIGGAPLYLIDRFGEGSSIYDIDFVYLEGVERNPVGAGLKVIDHLTHNVYRGRMVYWANFYEKLFNFREARYFDIKGEYTGLTSKAMSAPDGMIRIPLNEESSKGAGQIEEFLMQFNGEGIQHVAFLTDDLVKTWDALKKIGMRFLTAPGDEYYEMLEGRLPDHGEPVDQLQARGILLDGSSVEGDKRLLLQIFSEQLMGPVFFEFIQRKGDDGFGPDSFKVLFEQIERDQVRRGVLTAD	Not met

// next entry
Check this molecule for Turnover at or above 0.2: SEQ ID NO:48 (protein, mutant HPPD polypeptide) MADLYENPMGLMGFEFIEFASPTPGTLEPIFEIMGFTKVATHRSKNVHLYRQGEINLILNNEPNSIASYFAAEHGPSVCGMAFRVKDSQKAYNRALELGAQPIHIDTGPMELNLPAIKGIGGAPLYLIDRFGEGSSIYDIDFVYLEGVERNPVGAGLKVIDHLTHNVYRGRMVYWANFYEKLFNFREARYFDIKGEYTGLTSKAMSAPDGMIKIPLNEESSKGAGQIEEFLMQFNGEGIQHVAFLTDDLVKTWDALKKIGMRFMTAPGDEYYEMLEGRLPDHGEPVDQLQARGILLDGSSVEGDKRLLLQIFSETLMGPVFFEFIQRKGDDGFGPDSFKVLFESIERDQVRRGVLTAD
Not met
